These entries and their values trace back to ChEMBL document CHEMBL1128416.

assaySystem: D(2) dopamine receptor (Rattus norvegicus) (UniProt P61169)
Sequence (P61169 whole entry): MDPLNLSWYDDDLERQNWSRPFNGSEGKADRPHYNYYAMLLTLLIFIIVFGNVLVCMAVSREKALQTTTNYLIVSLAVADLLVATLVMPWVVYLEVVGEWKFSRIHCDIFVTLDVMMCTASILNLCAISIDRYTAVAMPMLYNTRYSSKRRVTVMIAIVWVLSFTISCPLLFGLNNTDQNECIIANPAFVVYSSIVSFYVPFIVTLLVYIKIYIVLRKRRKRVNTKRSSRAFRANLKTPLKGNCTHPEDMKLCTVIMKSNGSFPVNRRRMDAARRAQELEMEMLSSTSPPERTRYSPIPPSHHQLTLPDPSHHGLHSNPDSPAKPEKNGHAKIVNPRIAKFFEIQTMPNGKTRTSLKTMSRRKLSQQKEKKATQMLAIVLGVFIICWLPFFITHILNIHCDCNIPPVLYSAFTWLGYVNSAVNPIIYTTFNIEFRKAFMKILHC
assaySummary: Binding affinity towards Dopamine receptor D2 by displacing [3H]spiperone radio-ligand in rat striatal membranes by using radioligand competition assay.
Type: cell membranes
conditionSet: Striatum; Membrane
# key: entry, value: K0.5
experimentalEndpoint: K0.5 (nM)

>>> resultvalue("Oc1cc2c3c(c1O)CCc1ccccc1C3CNCC2 (stereo not given)")
2150
>>> resultvalue("Oc1cc2c(cc1O)[C@H]1c3ccccc3CN[C@@H]1CC2")
29
>>> resultvalue("Oc1cc2c(cc1O)[C@@H](c1ccccc1)CNCC2")
1870
>>> resultvalue("Oc1cc2c3c(c1O)Cc1ccccc1C3CNCC2 (stereo not given)")
1250

----------
assaySystem: D(1A) dopamine receptor (Rattus norvegicus) (UniProt P18901)
Sequence (P18901 whole entry): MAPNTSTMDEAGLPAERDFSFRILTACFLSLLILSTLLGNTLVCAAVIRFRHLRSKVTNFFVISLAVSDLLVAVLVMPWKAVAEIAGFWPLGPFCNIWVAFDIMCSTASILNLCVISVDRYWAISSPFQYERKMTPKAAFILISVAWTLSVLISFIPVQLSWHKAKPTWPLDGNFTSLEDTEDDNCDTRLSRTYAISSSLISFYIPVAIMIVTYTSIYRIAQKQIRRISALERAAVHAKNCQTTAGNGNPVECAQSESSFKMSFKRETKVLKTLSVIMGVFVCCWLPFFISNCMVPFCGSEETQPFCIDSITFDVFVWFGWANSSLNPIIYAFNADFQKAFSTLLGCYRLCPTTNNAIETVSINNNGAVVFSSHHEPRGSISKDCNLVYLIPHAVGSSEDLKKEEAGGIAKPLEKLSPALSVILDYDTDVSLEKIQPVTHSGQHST
assaySummary: Binding affinity to the dopamine receptor D1 by displacing [3H]-SCH- 23390 radio-ligand in rat striatal membranes by using radioligand competition assay.
Format: cell membranes
conditionSet: Striatum; Membrane
# key: entry, value: K0.5
experimentalEndpoint: K0.5

>>> resultvalue("Oc1cc2c3c(c1O)CCc1ccccc1C3CNCC2 (centres undefined)")
"372 nM"
>>> resultvalue("Oc1cc2c3c(c1O)Cc1ccccc1C3CNCC2 (centres undefined)")
"590 nM"
>>> resultvalue("Oc1cc2c(cc1O)[C@@H](c1ccccc1)CNCC2")
"11.1 nM"
>>> resultvalue("NCC1c2ccccc2Cc2c1ccc(O)c2O (centres undefined)")
"> 2500 nM"
